tested on: SK-MEL-2 melanoma; test: NCI-60 one-dose screen, 48 h (100 = growth as untreated, 0 = no growth, -100 = all killed); settings: 10 µM unless noted
About 83,000 compounds went through this panel and 20% of them were active in at least one assay; those are over-represented in the sample as a whole.
Field: label. Allowed values: class 1 (growth < 70%) or class 0 (growth >= 70%).

Prompt: Bench note: check whether Cc1ccc(N(CC(=O)Nc2ccc(S(=O)(=O)N3CCC(N4CCCC4)CC3)cc2)S(=O)(=O)c2ccc(Cl)cc2)cc1 shows growth below 70%
Completion: class 0

Okay, now this molecule:
Prompt: Bench note: check whether Cn1cc(-c2csc(-c3c[nH]c4ccc(F)cc34)n2)c2cccnc21 shows growth below 70%
Completion: class 1

====

Item-by-item account of growth
tested on: TK-10 renal; assay: NCI-60 one-dose screen, 48 h (100 = growth as untreated, 0 = no growth, -100 = all killed); conditions: 10 µM unless noted
About 83,000 compounds went through this panel and 20% of them were active in at least one assay; those are over-represented in the sample as a whole. Calls of active or inactive are those of the source. How the source made its calls: active means growth percent below 10; inactive means the rest.

// worked examples, growth included
Prompt: What measured growth goes with COc1cccc(-c2nn(-c3ccccc3)cc2-c2ccnc(NCCCNS(=O)(=O)c3ccc(C(F)(F)F)cc3)c2)c1 ?
Completion: 42.1% (inactive)

Prompt: Can you handle COc1cc(/C=N/Nc2ncnc3c2c(C)nn3-c2ccc(F)cc2)ccc1O next?
Completion: 88.7% (inactive)

Prompt: Can you handle O=S(=O)(NCCNc1cc(-c2cn(-c3ccccc3)nc2-c2cccc(O)c2)ccn1)c1ccc(Cl)cc1 next?
Completion: 50.5% (inactive)

Prompt: Can you handle Cc1ccc2[nH]cc(-c3nc(-c4cn(C)c5ncccc45)cs3)c2c1 next?
Completion: 95% (inactive)

Prompt: Can you handle NC(=O)NCC1CCCCC1 next?
Completion: 95.5% (inactive)

More entries:
Prompt: What measured growth goes with Cc1csc(Nc2nc(-c3cccc(Br)c3)nc(C(Cl)(Cl)Cl)n2)n1 ?
Completion: 49.9% (inactive)

Prompt: Can you handle c1ccc2c(-c3nc(-c4c[nH]c5ncccc45)cs3)c[nH]c2c1 next?
Completion: 120% (inactive)

Prompt: Can you handle Clc1ccc2c(NCCNc3nc(-c4ccccc4)cc(-c4ccccc4)n3)ccnc2c1 next?
Completion: -8.38% (active)

Prompt: Can you handle CCCCCCCC(=O)SCC/C=C/[C@@H]1CC(=O)NCc2cccc(n2)CN(Cc2ccc(Cl)cc2)CC(=O)N[C@@H](C(C)C)C(=O)O1 next?
Completion: -6.26% (active)

Prompt: Can you handle CCCCC[C@H]1C/C=C2/C(=O)C(Cl)=C[C@@H]2C/C=C\CCCC(=O)O1 next?
Completion: -56.7% (active)

Prompt: Can you handle O=c1c(CNc2ccc(S(=O)(=O)Nc3ncccn3)cc2)coc2ccccc12 next?
Completion: 106% (inactive)

Prompt: Can you handle Cc1cc(N2CCCCC2)nc(N(CCNc2ccnc3cc(Cl)ccc23)Cc2ccco2)n1 next?
Completion: 68.5% (inactive)

Prompt: Can you handle CC(C)(C)c1ccc(OCCCCCCCN2CCNCC2)cc1 next?
Completion: 105% (inactive)

Prompt: Can you handle Cc1c(C)c2c(c(C)c1NC(=O)CCCCCCC(=O)O)CCC(C)(CCCC(C)CCCC(C)CCCC(C)C)O2 (stereo not given) next?
Completion: 87.6% (inactive)

Prompt: Can you handle C=C1C(=O)O[C@H]2[C@H]1CC/C(COC(=O)NCc1c[nH]c3ccccc13)=C\CC[C@@]1(C)O[C@@H]21 next?
Completion: 34.3% (inactive)

Prompt: Can you handle S=c1[nH]nc2ccccn12 next?
Completion: 85.7% (inactive)

Prompt: Can you handle O=C1c2cccc3cccc(c23)C(=O)N1CC#Cc1ccc2c3c(cccc13)C(=O)N(CCO)C2=O next?
Completion: 165% (inactive)

Prompt: Can you handle CCSc1ncnc2c1ncn2C1OC(CO)C(O)C1O (stereo not given) next?
Completion: 37.6% (inactive)

Prompt: Can you handle CCc1ccc(-c2ccc(Nc3ccccc3)nn2)cc1S(N)(=O)=O next?
Completion: 116% (inactive)

Prompt: Can you handle COc1cc(/C=N/NC(=S)NNC(=S)NC2CCCCC2)cc(OC)c1OC next?
Completion: 147% (inactive)

====

Test system: SK-OV-3 ovarian
Assay: NCI-60 one-dose screen, 48 h (100 = growth as untreated, 0 = no growth, -100 = all killed)
Settings: 10 µM unless noted
Protocol: Growth inhibition of the SK-OV-3 human tumor cell line is measured as a screen for anti-cancer activity. Cells are grown in 96 well plates and exposed to the test compound for 48 hours. Compounds are tested at a single concentration, which is 10^-5 M for most compounds. The reported endpoint is percent growth (GI% or GIPRCNT), where numbers from 0 - 100% represent growth inhibition, and numbers from -100% - 0 represent cell death. For example, a value of 40 represents 60% growth inhibition. […]
About 83,000 compounds went through this panel and 20% of them were active in at least one assay; those are over-represented in the sample as a whole.
parameter_measured: growth (%)
Answer format: numeric, % implied, no suffix.

// worked examples, growth included
Prompt: What measured growth goes with CCCCN1CCCCn2c1nc1c2c(=O)n(C)c(=O)n1C ?
Completion: 110

Prompt: Can you handle Cn1c(=O)c2c(ncn2CC(=O)Nc2ccc(S(N)(=O)=O)cc2)n(C)c1=O next?
Completion: 87.8

Prompt: Can you handle COc1ccc(C(=O)c2ccc(C)cc2)c(OC)c1OC next?
Completion: 79.3

More entries:
Prompt: What measured growth goes with CCCNc1nc(N(C)O)nc(N(C)O)n1 ?
Completion: 45.2

Prompt: Can you handle C=C(C)[C@@H]1CC[C@]2(C)CC[C@]3(C)[C@H](CC[C@@H]4[C@@]5(C)CCCNC(C)(C)[C@@H]5CC[C@]43C)[C@@H]12 next?
Completion: 113

Prompt: Can you handle NC1=NN=C2N(N)C(=O)c3cnn(-c4ccccc4)c3N2c2nc(-c3ccccc3)cc(-c3ccccc3)c21 next?
Completion: 93.2

====

system: KM12 colon; assay: NCI-60 one-dose screen, 48 h (100 = growth as untreated, 0 = no growth, -100 = all killed); details: 10 µM unless noted
The panel holds about 83,000 compounds, 20% with a hit somewhere; the sample as a whole holds those more often. Calls of active or inactive are those of the source. Rule for the calls: active = growth percent below 10; inactive = the rest.
Item-by-item account of growth

// worked examples, growth included
Prompt: Which growth is reported with KM12 colon for this entry: Cc1cc(N2CCCC2)nc(N(CCNc2ccnc3cc(Cl)ccc23)Cc2ccco2)n1 ?
Completion: 50% (inactive)

Prompt: Can you handle O=C1CN(c2ccccc2)C(=O)C1C(=O)Nc1ccc(Cl)c(Cl)c1 (configuration not stated) next?
Completion: 17.2% [100 µM] (inactive)

Prompt: Can you handle Fc1ccc(Nc2nnc(-c3ccc(Cl)cc3)o2)cc1 next?
Completion: 97.8% (inactive)

More entries:
Prompt: Which growth is reported with KM12 colon for this entry: COC(=O)c1cc(=O)nc(N/N=C/c2ccc(C)cc2)s1 ?
Completion: 110% (inactive)

Prompt: Can you handle Cn1c(=O)c2c(ncn2CCC(=O)Nc2ccc(F)cc2)n(C)c1=O next?
Completion: 103% (inactive)

Prompt: Can you handle COC(=O)CNc1nc(N(C)O)nc(N(C)O)n1 next?
Completion: 45.2% (inactive)

Prompt: Can you handle COc1cc(OC)c2c(c1)c1nc3cc(C)c(C)cc3nc1n2CCN(C)C next?
Completion: 86.3% (inactive)

Prompt: Can you handle COc1cc(/C=N/Nc2ncnc3c2c(C)nn3-c2ccc(F)cc2)ccc1O next?
Completion: 71.9% (inactive)

Prompt: Can you handle NC(=O)NCC1CCCCC1 next?
Completion: 102% (inactive)

Prompt: Can you handle COC(=O)C(N)CSC(c1ccccc1)(c1ccccc1)c1ccccc1 (configuration not stated) next?
Completion: 17.6% (inactive)

Prompt: Can you handle O=C1CNCCN1 next?
Completion: 110% (inactive)

Prompt: Can you handle CN(C)c1cccc2[nH]c(-c3[nH]ncc3Nc3ccnc(N)n3)nc12 next?
Completion: -31.8% (active)

====

tested on: NCI-H460 lung; test: NCI-60 one-dose screen, 48 h; conditions: 10 µM unless noted
Compounds without any hit were thinned out: in the full panel of roughly 83,000, 20% have a hit. Calls of active or inactive are those of the source. Rule for the calls: active = growth percent below 10; inactive = the rest.
Outcomes you can answer with include only these: true (active), false (inactive)

Previously resolved entries follow.
Prompt: Called result for O=S(=O)(NCCNc1cc(-c2cn(-c3ccccc3)nc2-c2cccc(O)c2)ccn1)c1ccccc1
Completion: false

Prompt: Can you handle CC(=O)NC1=C(C#N)C(c2ccccc2Cl)c2c(ccc3ccccc23)O1 (configuration not stated) next?
Completion: false

Prompt: Can you handle CCc1cccc(CC)c1NC(=O)c1sc2nc3c(cc2c1N)CCCC3 next?
Completion: false

Prompt: Can you handle COc1ccc2c(c1)C/C(=C\c1cc(-c3cc(OC)c(OC)c(OC)c3)n[nH]1)C2=O next?
Completion: false

Prompt: Can you handle COc1ccc(C(=O)c2cc(OC)c(OC)c(OC)c2)cc1/C=C/C(=O)c1cc(OC)c(OC)c(OC)c1 next?
Completion: false

Prompt: Can you handle O=C1CCC/C=C\C[C@H]2C=C(Cl)C(=O)/C2=C/C[C@H](CCCCC(F)(F)F)OC(=O)CCC/C=C\C[C@H]2C=C(Cl)C(=O)/C2=C/C[C@H](CCCCC(F)(F)F)O1 next?
Completion: true

Prompt: Can you handle CCCNc1nc(N(C)O)nc(N(C)O)n1 next?
Completion: false

Prompt: Can you handle Cc1ccc(N(CC(=O)Nc2ccc(S(=O)(=O)NC3CCN(C)CC3)cc2)S(=O)(=O)c2ccc(Cl)cc2)cc1 next?
Completion: true

More entries:
Prompt: Called result for NC(N)=N/N=C/c1ccc(-c2ccc(-c3ccc(Cl)cn3)s2)cc1
Completion: false

Prompt: Can you handle COc1cccc(-c2nn(-c3ccccc3)cc2-c2ccnc(NCCCNS(=O)(=O)c3ccc(Cl)cc3)c2)c1 next?
Completion: false

Prompt: Can you handle Cc1cc(N(CCNc2ccnc3cc(Cl)ccc23)Cc2ccco2)nc(Cl)n1 next?
Completion: true

Origin of the recorded values: PubChem BioAssay (NCI)
